- experiment: chemical genetic growth profiling, strain panel (AID 1159580);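 also: tested at 20 µM; growth read once vehicle control cultures reached saturation at 30 °C; 1 = growth at the plate median or of vehicle wells; lower values mean less growth of the strain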
- condition: S. cerevisiae deletion strains, growth OD, locus YHR087W, strain rtc3, active compounds read low
The whole screen tested about 5,500 compounds, of which about 2,000 (36%) were called active. Another 18% or so got no clear call; they are omitted. Some of the results follow.

| smiles | normalized growth |
| --- | --- |
| N#Cc1sccc1Br | 0.986 |
| O=C(O)c1nccnc1C(=O)O | 1.02 |
| COC(=O)CSCCc1nc(-c2ccc([N+](=O)[O-])cc2)cs1 | 0.987 |

----------
- experiment: chemical genetic growth profiling, strain panel (AID 1159580);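 also: tested at 20 µM; growth read once vehicle control cultures reached saturation at 30 °C; 1 = growth at the plate median or of vehicle wells; lower values mean less growth of the strain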
- condition: S. cerevisiae deletion strains, growth OD, locus YER110C
Out of some 5,500 compounds screened, about 2,000 (36%) were called active. About 18% were inconclusive and are not listed. Rule as the data show it: active = normalized growth mostly below about 0.91 (no sharp cut-off); inconclusive = no clear call, values can overlap the other calls; inactive = mostly above about 0.92. The list shows a part of the results. *1 amine or outer side, *2 acyl side, *3 side chain or, on linkers, in order; H or OH if unused. Where a SMILES comes first, the peptide text is derived from it. Bridges are numbered along the chain shown (N, C = ends). [ ]: non-standard residue; d: D form. The star is where a group is joined. ξ: configuration not given here. ΔAla(E,3-NHCONH2) = NC(=O)N/C=C(/N)C(=O)O; X2 = NC1=NCCC(C(N[*:1])C(=O)[*:2])N1; ξβ3hOrn = NCCCC(N)CC(=O)*; Dap = NC[CH](N)C(=O)O
Outcome codes: active, inactive

| molecule | class.name |
| --- | --- |
| O=c1[nH]cnc2c1ncn2C1O[C@H](CO)[C@@H](O)[C@H]1O (stereo partly specified) | inactive |
| CC(=O)[C@@]1(O)CCC2C3CCC4=CC(=O)CC[C@]4(C)C3CC[C@@]21C (stereo partly specified) | inactive |
| CC[C@H]1OC(=O)[C@H](C)[C@@H](O[C@H]2C[C@@](C)(OC)[C@@H](O)[C@H](C)O2)[C@H](C)[C@@H](O[C@@H]2O[C@H](C)C[C@H](N(C)C)[C@H]2O)[C@](C)(O)C[C@@H](C)[C@@H]2N[C@@H](COCCOC)O[C@H]([C@H]2C)[C@]1(C)O | inactive |
| COc1ccc2c(c1)[C@]13CCCC[C@H]1[C@H](C2)N(C)CC3 | inactive |
| COc1c2occc2c(OC)c2c(=O)cc(C)oc12 | inactive |
| NC(=O)N1c2ccccc2C=Cc2ccccc21 | inactive |
| CC(=O)OC1CCC2(C)C3CC(=O)C4(C)C(CC5OC6(CCC(C)CO6)[C@@H](C)C54)C3CC[C@H]2C1 (stereo partly specified) | inactive |
| Cc1cc(C(C)(C)C)c(O)c(C)c1CC1=NCCN1 | inactive |
| c1ccc([C@H]2CN3CCSC3=N2)cc1 | inactive |
| CC[C@H]1CN2CCc3cc(OC)c(OC)cc3C2C[C@@H]1CC1NCCc2cc(OC)c(OC)cc21 (stereo partly specified) | inactive |
| Cc1cc(C(C)(C)C)cc(C)c1CC1=NCCN1 | inactive |
| CO[C@@]1(NC(=O)Cc2cccs2)C(=O)N2C(C(=O)O)=C(COC(N)=O)CS[C@@H]21 | inactive |
| O=C(O)[C@H](O)[C@@](O)(Cc1ccc(O)cc1)C(=O)O | inactive |
| O=C(OC[C@H]1O[C@H](OC(=O)c2cc(O)c(O)c(OC(=O)c3cc(O)c(O)c(O)c3)c2)[C@H](OC(=O)c2cc(O)c(O)c(OC(=O)c3cc(O)c(O)c(O)c3)c2)[C@@H](OC(=O)c2cc(O)c(O)c(OC(=O)c3cc(O)c(O)c(O)c3)c2)[C@@H]1OC(=O)c1cc(O)c(O)c(OC(=O)c2cc(O)c(O)c(O)c2)c1)c1cc(O)c(O)c(OC(=O)c2cc(O)c(O)c(O)c2)c1 | active |
| CC(=O)Oc1cccc2c1C(=O)c1c(OC(C)=O)cc(C(=O)O)cc1C2=O | active |
| O=C(CCBr)N1CCN(C(=O)CCBr)CC1 | inactive |
| CC(NCCC(c1ccccc1)c1ccccc1)c1ccccc1 (stereo unspecified) | inactive |
| O=C(O)c1cc(=O)c2c(Cl)cc(Cl)cc2[nH]1 | inactive |
| CC(=O)Oc1cccc(C(=O)O)c1OC(C)=O | inactive |
| NCCCC(N)CC(=O)NCC1NC(=O)C(CO)NC(=O)C(N)CNC(=O)C(C2CCN=C(N)N2)NC(=O)/C(=C\NC(N)=O)NC1=O (stereo not drawn) (H-[Dap]S[Dap](ξβ3hOrn)[ΔAla(E,3-NHCONH2)][X2]; lactam 1-C; configuration not given here) | inactive |
| Cc1cc(=O)n(-c2ccccc2)n1C | inactive |
| COc1cc(O)cc(OC)c1OC | inactive |
| Cc1ccc(N(CC2=NCCN2)c2cccc(O)c2)cc1 | inactive |
| Cc1c(NC(=O)c2cccnc2)c(=O)n(-c2ccccc2)n1C | inactive |
| O=C(O)c1cc(=O)c2cccc(O)c2[nH]1 | inactive |
| COc1cc(NS(=O)(=O)c2ccc(N)cc2)ncn1 | inactive |
| CC(=O)O[C@H]1CC[C@]2(C)C3CC[C@@]4(C)C(CC5O[C@@]6(CCC(C)CO6)[C@@H](C)C54)C3CC[C@@H]2C1 (stereo partly specified) | inactive |
| CC1=CC(=O)C2=C(C)CC(O)C3C(C)C(=O)OC3C12 (stereo unspecified) | inactive |
| COC1(C)CCC2OC2(C)CCC2C1CC2(C)C (stereo unspecified) | inactive |
| CC(=O)O[C@@H]1CC[C@]2(C)C3CC[C@]4(C)C(=O)CCC4C3CC[C@H]2C1 (stereo partly specified) | inactive |
| CCOC([O-])=Nc1c[n+](N2CCOCC2)no1 | inactive |

----------
- experiment: chemical genetic growth profiling, strain panel (AID 1159580);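 also: tested at 20 µM; growth read once vehicle control cultures reached saturation at 30 °C; 1 = growth at the plate median or of vehicle wells; lower values mean less growth of the strain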
- condition: S. cerevisiae deletion strains, growth OD, locus YHR027C, strain rpn1
In all, about 5,500 compounds went through this assay and about 2,000 (36%) were called active. Roughly 18% stayed inconclusive and do not appear here. Cut-off read from the data, not from the text of the source: active = normalized growth mostly below about 0.91 (no sharp cut-off); inconclusive = no clear call, values can overlap the other calls; inactive = mostly above about 0.92. This is one part of the list.
Outcome codes: active, inactive

| molecule | class.name |
| --- | --- |
| Cc1cc(C(C)(C)C)c(O)c(C)c1CC1=NCCN1 | inactive |
| CC(=O)O[C@@H]1CC[C@]2(C)C3CC[C@]4(C)C(=O)CCC4C3CC[C@H]2C1 (stereo partly drawn) | inactive |
| CCCCc1nc(Cl)c(CO)n1Cc1ccc(-c2ccccc2-c2nn[nH]n2)cc1 | inactive |
| CC[C@H]1OC(=O)[C@H](C)[C@@H](O[C@H]2C[C@@](C)(OC)[C@@H](O)[C@H](C)O2)[C@H](C)[C@@H](O[C@@H]2O[C@H](C)C[C@H](N(C)C)[C@H]2O)[C@](C)(O)C[C@@H](C)[C@@H]2N[C@@H](COCCOC)O[C@H]([C@H]2C)[C@]1(C)O | inactive |
| NC[C@H]1O[C@H](O[C@H]2[C@H](O)[C@@H](O[C@H]3O[C@H](CO)[C@@H](O)[C@H](N)[C@H]3O)[C@H](N)C[C@@H]2N)[C@H](N)C[C@@H]1O | inactive |
| COc1cc(-c2oc3cc(O)ccc3c(=O)c2O)ccc1O | active |
| COc1ccc(-c2oc3ccccc3c(=O)c2O)cc1OC | active |
| COC(=O)C[C@H]1C(C)(C)[C@@H](O)[C@@H]2CC3=C4C=C(OC)O[C@@H](c5ccoc5)[C@]4(C)CCC3[C@@]1(C)C2=O (stereo partly drawn) | inactive |
| NC(=O)NO | inactive |
| CC(=O)NO | inactive |
| O=c1[nH]cnc2c1ncn2C1O[C@H](CO)[C@@H](O)[C@H]1O (stereo partly drawn) | inactive |
| CCCc1nc2c(C)cc(-c3nc4ccccc4n3C)cc2n1Cc1ccc(-c2ccccc2C(=O)O)cc1 | inactive |
| CN[C@@H]1[C@@H](O[C@H]2O[C@H](CO)[C@@H](N)[C@H](O)[C@H]2O)O[C@H]2C[C@@H](N)[C@H](O[C@H]3[C@H](O)[C@@H](O)[C@H](N)C[C@@H]3N)O[C@@H]2[C@@H]1O | inactive |
| C1CCC(C(CC2CCCCN2)C2CCCCC2)CC1 (stereo not drawn) | inactive |
| Cc1ccc(N(CC2=NCCN2)c2cccc(O)c2)cc1 | inactive |
| CC(=O)O[C@H]1CC[C@]2(C)C3CC(=O)[C@]4(C)C(C(C)=O)=CCC4C3CC[C@H]2C1 (stereo partly drawn) | inactive |
| O=c1c(O)c(-c2ccc(O)c(O)c2)oc2cc(O)ccc12 | inactive |
| Cc1cc(C(C)(C)C)cc(C)c1CC1=NCCN1 | inactive |

----------
- experiment: chemical genetic growth profiling, strain panel (AID 1159580);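 also: tested at 20 µM; growth read once vehicle control cultures reached saturation at 30 °C; 1 = growth at the plate median or of vehicle wells; lower values mean less growth of the strain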
- condition: S. cerevisiae deletion strains, growth OD, locus YPL241C, strain CIN2, active compounds read low
In all, about 5,500 compounds went through this assay and about 2,000 (36%) were called active. About 18% were inconclusive and are not listed. The list shows a part of the results.

| molecule | normalized growth |
| --- | --- |
| CC(N)C(O)c1ccc(O)c(O)c1 (stereo not given) | 1 |
| COc1cc(-c2oc3cc(O)ccc3c(=O)c2O)cc(OC)c1OC | 1.01 |
| CC(=O)N[C@@H](Cc1c[nH]c2ccccc12)C(=O)O | 1 |
| C#CC1(O)CCC2C3CCC4=CC(=O)CCC4(C)C3CCC21C (stereo not given) | 0.99 |
| C[C@]12CCC(=O)C=C1CCC1C2[C@@H](O)C[C@@]2(C)C1CC[C@]2(O)C(=O)COC(=O)CCC(=O)O (stereo not given in full) | 1.01 |
| NCC1OC(OC2C(CO)OC(OC3C(O)C(N)CC(N)C3OC3OC(CO)C(O)CC3N)C2O)C(N)C(O)C1OC1OC(CO)C(O)C(O)C1O (stereo not given) | 0.997 |
| O=C(c1cccc([N+](=O)[O-])c1)c1cc2cc(Br)cc(Br)c2o1 | 0.942 |
| COc1cc2nc(-c3cccs3)oc(=O)c2cc1OC | 0.976 |
| CCN(CC)CCNC(=O)c1cc(Cl)c(N)cc1OC | 1.01 |
| O=c1c(O)c(-c2ccc(O)c(O)c2)oc2cc(O)ccc12 | 0.981 |
